# Assay Explanation: Selectivity index, ratio of CC50 for human MT4 cells to EC50 for HIV1 3B
# Type: toxicity, cell-based
# Test Settings: read-out: Ratio CC50/EC50
# selectivity ratio annotations

Previously resolved entries follow.
Given Smiles: COc1cc(Oc2c(C)cc(C)cc2C)cc(Nc2ccc(C)cc2)n1
Readout Value: < 1
//
Given Smiles: Cc1cc(C)cc(Oc2cc(Nc3ccc(C#N)cc3)[nH]c(=O)c2I)c1
Readout Value: < 1
//
Given Smiles: Cc1cc(C)c(Oc2cc(Nc3ccc(C#N)cc3)[nH]c(=O)c2Cl)c(C)c1
Readout Value: > 35
//
Given Smiles: COc1cc(Oc2cc(C)cc(C)c2)cc(Nc2ccc(C#N)cc2)n1
Readout Value: < 1
//
Given Smiles: Cc1cc(C)cc(Oc2cc(Nc3ccc(C#N)cc3)[nH]c(=O)c2)c1
Readout Value: < 1

Here's the next entry for you.
Lookup result for `Cc1cc(C)cc(Oc2cc(Nc3ccc(C#N)cc3)[nH]c(=O)c2Cl)c1` ; measured selectivity ratio: < 1

---

# Assay Explanation: Cytotoxicity against human MT4 cells after 5 days by MTT assay
# Type: cell-based
Recorded Endpoint: CC50 at 120 h

Previously resolved entries follow.
Given Smiles: COc1cc(Oc2c(C)cc(C#N)cc2C)cc(Nc2ccc(C#N)cc2)n1
CC50 at 120 h: > 147 µM
//
Given Smiles: Cc1cc(C#N)cc(C)c1Oc1cc(Nc2ccc(C#N)cc2)[nH]c(=O)c1Cl
CC50 at 120 h: > 319 µM

Lookup result for `Cc1cc(C#N)cc(C)c1Oc1cc(Nc2ccc(C#N)cc2)[nH]c(=O)c1I` ; measured CC50 at 120 h: > 259 µM
